From: PubChem BioAssay (NCI)

Tested on: SK-OV-3 ovarian
PROTOCOL DESCRIPTION: NCI tumour cell line growth inhibition, 48 h
Readings of TGI for the listed compounds

INSERT INTO assay_data (compound, tested_system, measurement_kind, result) VALUES
  ('COC(=O)/C=C(\C(=O)OC)c1c2c3c(cc(OC)c(OC)c3c3ccccc13)CCN2C', 'SK-OV-3 ovarian', 'TGI', '> 100 µM'),
  ('N#Cc1ccccc1NC(=O)C(=O)c1c(O)c2ccccc2oc1=O', 'SK-OV-3 ovarian', 'TGI', '> 100 µM'),
  ('CC(C)(C)OC(=O)NCCc1cccc2c1oc1c(CCC(=O)O)cccc12', 'SK-OV-3 ovarian', 'TGI', '> 100 µM'),
  ('CCCCC(Sc1cc(Cl)c(C)cc1S(=O)(=O)Nc1n[nH]c(N)n1)C(=O)OC (stereo not drawn)', 'SK-OV-3 ovarian', 'TGI', '> 10 µM'),
  ('O=c1oc2ccccc2c(O)c1/C=N/C(=S)NCCc1ccccc1', 'SK-OV-3 ovarian', 'TGI', '> 63.8 µM');

q: Which TGI reading was recorded for the compound `CN(C)CCNC(=O)C(C)(C)Oc1ccc(C(=O)c2ccc(Cl)cc2)cc1Cl` ?
a: 29.6 µM

q: Another: C=CC(C1=CC(=O)C(OC)=CC1=O)c1ccccc1 (stereo not drawn)
a: 42.2 µM

q: Another: `O=C(CN(/C=C/C(=O)C(F)(F)F)c1ccc(Cl)cc1)c1ccccc1`
a: > 100 µM

q: Another: COC(=O)C(C(=O)C(=O)Nc1nc(=S)[nH][nH]1)c1csc(-n2nc(-c3ccccc3)cc2-c2ccccc2)n1 (stereo not drawn)
a: > 100 µM

q: Another: CC(SC(=S)N1CCOCC1)C(=O)Nc1nnc(-c2ccccc2)o1 (stereo not drawn)
a: > 100 µM

q: Another: S=C1CC(c2ccccc2)Sc2ccccc2N1 (stereo not drawn)
a: > 100 µM

q: Another: OC1CCOc2ccccc21 (stereo not drawn)
a: > 100 µM

q: Another: `c1ccc(-n2nc3ccc4nonc4c3n2)cc1`
a: > 100 µM
